assay: in vitro; conditions: human, hepatocytes
The threshold is 6 µL/min/1e6 cells. Values of hepatocyte CLint beneath it are tagged 1 (yes); values meeting or exceeding it are tagged 0 (no).

| molecule | group_label |
| --- | --- |
| O=c1[nH]c2c(O)ccc([C@@H](O)CNCCc3cccc(CNCCc4c(Cl)cccc4Cl)c3)c2s1 | 1 (yes) |
| O=C(Nc1cc(-c2ccnc(Nc3ccccc3)c2)ccn1)C1CCOCC1 | 0 (no) |
| O=C(N[C@H](Cc1ccc(Cl)cc1)C(=O)N1CCC(Cn2cncn2)(C2CCCCC2)CC1)[C@H]1Cc2ccccc2CN1 | 0 (no) |
| O=C1COC2(CCN(S(=O)(=O)c3ccc(-c4ccc5cnccc5c4)cc3)CC2)CN1C1CC1 | 0 (no) |
| CC1Cc2ccccc2N1NC(=O)c1ccc(Cl)c(S(N)(=O)=O)c1 (stereo not drawn) [INDAPAMIDE] | 1 (yes) |
| CCCCNC(=O)NS(=O)(=O)c1ccc(C)cc1 [TOLBUTAMIDE] | 0 (no) |
| COc1cc(C(CO)CO)ccc1Nc1ncc(Cl)c(-c2cnc3ccccn23)n1 | 0 (no) |
| CC(C)(C)NS(=O)(=O)c1cncc(-c2ccc3nc(NC(=O)NCC(=O)N4CCOCC4)nn3c2)c1 | 1 (yes) |
| C[C@@H]1CN(C(=O)N[C@H](Cc2ccc(F)cc2)C(=O)N2CCC(C(=O)NC(C)(C)C)(C3CCCCC3)CC2)C[C@H](C)N1 | 0 (no) |
| O=C(O)C[C@H]1CC[C@H](c2ccc(-c3ccc(Nc4ccc(C(F)(F)F)nc4)cn3)cc2)CC1 | 1 (yes) |
| O=C(O)C1(c2ccc(-c3ccc(Cl)c(Cl)c3)c(F)c2)CC1 | 0 (no) |
| CCC(CC)NC(=O)c1c(C)nn(-c2ccccc2)c1NS(=O)(=O)c1ccc(C)cc1 | 1 (yes) |
| O=C(O)COc1ccc(Cl)cc1CN1CCN(S(=O)(=O)c2ccc(F)cc2)CC1 | 1 (yes) |
| Cc1ccccc1-n1c(Cn2nc(-c3ccc(O)c(F)c3)c3c(N)ncnc32)nc2cccc(C)c2c1=O | 0 (no) |
| NS(=O)(=O)c1ccc(-n2nc(C(F)(F)F)cc2-c2ccc(C(F)(F)F)cc2)cc1 | 0 (no) |
| O=C(Nc1ccc(Cl)c(S(=O)(=O)N2CCNCC2)c1O)Nc1cccc(F)c1Cl [ELUBRIXIN] | 1 (yes) |
| O=C(CO)N1CCC(c2[nH]nc(-c3ccc(Cl)cc3F)c2-c2ccncn2)CC1 | 1 (yes) |
